Measured AUC of dose-response viability curve values are reported for all entries that follow.
Tested on: ACHN
METHOD_NOTES: AUC of dose-response viability curve, drug + dasatinib, normalised to DMSO (arbitrary (AUC of normalised viability)); higher = less growth inhibition
STUDY_CONDITIONS: treatment: drug + dasatinib (fixed dose, not stated); 5 days
No unit in the answer, only the number.

Worked examples, 3 compounds total:
| COMPOUND | STUDY_TARGET | AUC of dose-response viability curve |
| --- | --- | --- |
| Cl.Cl.NC1(c2ccc(-c3nc4ccn5c(=O)[nH]nc5c4cc3-c3ccccc3)cc2)CCC1 [MK-2206 dihydrochloride] + Cc1nc(Nc2ncc(C(=O)Nc3c(C)cccc3Cl)s2)cc(N2CCN(CCO)CC2)n1 [dasatinib] | ACHN | 1.45 |
| COc1cc(OC)c(/C=C/S(=O)(=O)Cc2ccc(OC)c(NCC(=O)[O][Na])c2)c(OC)c1 + Cc1nc(Nc2ncc(C(=O)Nc3c(C)cccc3Cl)s2)cc(N2CCN(CCO)CC2)n1 [dasatinib] | ACHN | 1.18 |
| Cc1csc(-c2nnc(Nc3ccc(Oc4ncccc4-c4ccnc(N)n4)cc3)c3ccccc23)c1 [AMG 900] + Cc1nc(Nc2ncc(C(=O)Nc3c(C)cccc3Cl)s2)cc(N2CCN(CCO)CC2)n1 [dasatinib] | ACHN | 1.25 |

Next item in the queue.
Item: O=C(Nc1cccc(Nc2ncc(Br)c(NCCc3cnc[nH]3)n2)c1)N1CCCC1 [BX-912] + Cc1nc(Nc2ncc(C(=O)Nc3c(C)cccc3Cl)s2)cc(N2CCN(CCO)CC2)n1 [dasatinib] | AUC of dose-response viability curve: 1.9

---

System: 769-P
METHOD_NOTES: AUC of dose-response viability curve, drug alone (arbitrary (AUC of normalised viability)); higher = less growth inhibition
STUDY_CONDITIONS: treatment: drug alone; 5 days
Classification scheme (AUC of dose-response viability curve): Low (below 2), Medium (2 to below 3), High (3 or more)

| COMPOUND | ANSWER_LABEL |
| --- | --- |
| CC[C@@H]1C(=O)N(C)c2cnc(Nc3ccc(C(=O)N[C@H]4CC[C@H](N5CCN(CC6CC6)CC5)CC4)cc3OC)nc2N1C(C)C | Low |
| COC(=O)Nc1ccc(-c2nc(N3CCOCC3)c3cnn(C4CCN(C(=O)OC)CC4)c3n2)cc1 | Medium |
| CC1(COc2ccc3c(c2)ncn3-c2ccc3cccc(N4CCC(N)CC4)c3n2)COC1 | Medium |

Which class holds O=C1CCC(N2C(=O)c3ccccc3C2=O)C(=O)N1 (stereo not given) [Thalidomide] ?
High

Which category fits this record: COc1ccc(S(=O)(=O)N(C(C)=O)c2ccccc2/C=C/c2cc[n+]([O-])cc2)cc1
Medium

// bin(item) where item = CC(C)(C)c1cc(/C=C(\C#N)C(N)=S)cc(C(C)(C)C)c1O
High

# bin lookup: classify CCn1c(-c2nonc2N)nc2c(C#CC(C)(C)O)ncc(OC[C@H]3CCCNC3)c21 by its AUC of dose-response viability curve
High

Each compound maps to one class by AUC of dose-response viability curve. Which class for c1cncc(CN2CCC(n3ncc4c(N5CCOCC5)nc(-c5ccc6[nH]ccc6c5)nc43)CC2)c1 ?
Medium

---

Test system: TK-10
METHOD_NOTES: GI50, drug alone; higher = less potent
STUDY_CONDITIONS: treatment: drug alone; 5 days
# label = bin(measured GI50, drug alone), where bins are low bin: < 300 nM; mid bin: ≥ 300 nM and < 2000 nM; high bin: ≥ 2000 nM

Completed entries (count: 6):
| COMPOUND | ANSWER_LABEL |
| --- | --- |
| C#Cc1cccc(Nc2ncnc3cc(OCCOC)c(OCCO)cc23)c1.Cl [OSI-420 (Desmethyl Erlotinib)] | high bin |
| CNC(=O)c1nn(C)c2c1C(C)(C)Cc1cnc(Nc3ccc(N4CCN(C)CC4)cc3)nc1-2 | mid bin |
| CC1(C)CCC(c2ccc(Cl)cc2)=C(CN2CCN(c3ccc(C(=O)NS(=O)(=O)c4ccc(N[C@H](CCN5CCOCC5)CSc5ccccc5)c(S(=O)(=O)C(F)(F)F)c4)cc3)CC2)C1 [ABT-263 (Navitoclax)] | mid bin |
| COc1cc2nccc(Oc3ccc(NC(=O)C4(C(=O)Nc5ccc(F)cc5)CC4)cc3)c2cc1OC [XL-184 free base (Cabozantinib)] | high bin |
| C=CC(=O)Nc1cccc(Sc2nc(Nc3ccc(N4CCN(C)CC4)cc3)ncc2Cl)c1 [WZ8040] | high bin |
| Cn1c(=O)c(F)c(Nc2ccc(I)cc2F)c2c(=O)n(C[C@@H](O)CO)cnc21 [TAK-733] | low bin |

Into which category would you place FC(F)c1nc2ccccc2n1-c1nc(N2CCOCC2)nc(N2CCOCC2)n1 [ZSTK474] ?
mid bin

In plain terms, what class is Cn1cc(C2=C(c3ccc(Cl)cc3Cl)C(=O)NC2=O)c2ccccc21 ?
high bin

Which GI50, drug alone category applies to CCC[C@H](NC(=O)/C(C#N)=C/c1cccc(Br)n1)c1ccccc1 [WP1130] here?
high bin

---

As shown below, each of these compounds has a reported GI50 of drug value.
Test system: 786-O
METHOD_NOTES: GI50 of drug in presence of dasatinib; higher = less potent
STUDY_CONDITIONS: treatment: drug + dasatinib (fixed dose, not stated); 5 days
Record the value in nM, omitting the unit from your answer.

Below: 5 compounds and their reported GI50 of drug.
| COMPOUND | STUDY_TARGET | UNIT_TAG | TEST_RESULT |
| --- | --- | --- | --- |
| Cc1ccc(C(=O)Nc2cccc(C(F)(F)F)c2)cc1Nc1nc(-c2cccnc2)nc2c1cnn2C [NVP-BHG712] + Cc1nc(Nc2ncc(C(=O)Nc3c(C)cccc3Cl)s2)cc(N2CCN(CCO)CC2)n1 | 786-O | nM | 491 |
| COc1cc(OC)c(/C=C/S(=O)(=O)Cc2ccc(OC)c(NCC(=O)[O][Na])c2)c(OC)c1 + Cc1nc(Nc2ncc(C(=O)Nc3c(C)cccc3Cl)s2)cc(N2CCN(CCO)CC2)n1 | 786-O | nM | 18.1 |
| COc1cc2nccc(Oc3ccc(NC(=O)C4(C(=O)Nc5ccc(F)cc5)CC4)cc3)c2cc1OC [XL-184 free base (Cabozantinib)] + Cc1nc(Nc2ncc(C(=O)Nc3c(C)cccc3Cl)s2)cc(N2CCN(CCO)CC2)n1 | 786-O | nM | 29.5 |
| O=C(Nc1c[nH]nc1-c1nc2cc(CN3CCOCC3)ccc2[nH]1)NC1CC1 [AT9283] + Cc1nc(Nc2ncc(C(=O)Nc3c(C)cccc3Cl)s2)cc(N2CCN(CCO)CC2)n1 | 786-O | nM | 48.7 |
| O=C(NC1CCNCC1)c1n[nH]cc1NC(=O)c1c(Cl)cccc1Cl [AT7519] + Cc1nc(Nc2ncc(C(=O)Nc3c(C)cccc3Cl)s2)cc(N2CCN(CCO)CC2)n1 | 786-O | nM | 218 |

Lab note: measured GI50 of drug of Cc1nc(N)sc1-c1ccnc(Nc2ccc(N3CCOCC3)cc2)n1 [CYC116] + Cc1nc(Nc2ncc(C(=O)Nc3c(C)cccc3Cl)s2)cc(N2CCN(CCO)CC2)n1 was 482

The compound NC(=O)Nc1sc(-c2ccc(F)cc2)cc1C(N)=O [TPCA-1] + Cc1nc(Nc2ncc(C(=O)Nc3c(C)cccc3Cl)s2)cc(N2CCN(CCO)CC2)n1 showed GI50 of drug equal to 2540

---

Below, each of the compounds is paired with its reported AUC of dose-response viability curve value.
System: ACHN
METHOD_NOTES: AUC of dose-response viability curve, drug + dasatinib, normalised to DMSO (arbitrary (AUC of normalised viability)); higher = less growth inhibition
STUDY_CONDITIONS: treatment: drug + dasatinib (fixed dose, not stated); 5 days
No unit in the answer, only the number.

Before answering, review these 3 worked examples.
| COMPOUND | AUC of dose-response viability curve |
| --- | --- |
| CCN1CCN(c2ccc(Nc3cc(N(C)C(=O)Nc4c(Cl)c(OC)cc(OC)c4Cl)ncn3)cc2)CC1 [BGJ398 (NVP-BGJ398)] + Cc1nc(Nc2ncc(C(=O)Nc3c(C)cccc3Cl)s2)cc(N2CCN(CCO)CC2)n1 | 1.29 |
| CC[C@H](CO)Nc1nc(NCc2ccccc2)c2ncn(C(C)C)c2n1 [Roscovitine (Seliciclib, CYC202)] + Cc1nc(Nc2ncc(C(=O)Nc3c(C)cccc3Cl)s2)cc(N2CCN(CCO)CC2)n1 | 2.15 |
| O=C(Nc1cc(C(F)(F)F)cc(C(F)(F)F)c1)c1cc(Cl)ccc1O [IMD 0354] + Cc1nc(Nc2ncc(C(=O)Nc3c(C)cccc3Cl)s2)cc(N2CCN(CCO)CC2)n1 | 1.29 |

Here's the next entry for you.
The recorded AUC of dose-response viability curve with ACHN for CNC(=O)c1cc(Oc2ccc(NC(=O)Nc3cc(C(C)(C)C)nn3-c3ccc4ncccc4c3)c(F)c2)ccn1 [DCC-2036 (Rebastinib)] + Cc1nc(Nc2ncc(C(=O)Nc3c(C)cccc3Cl)s2)cc(N2CCN(CCO)CC2)n1 was 1.71
